Molecular target: phosphodiesterase
Test: calcium-dependent phosphodiesterase assay in the absence of calmodulin
Assay type: biochemical
Conditions: Table III
Square brackets hold non-standard residues; d marks the D form. Peptide text beside a SMILES is read from it.
measured_parameter: IC50

CC[C@H](C)[C@H](NC(=O)[C@H](CCCNC(=N)N)NC(=O)[C@H](Cc1c[nH]c2ccccc12)NC(=O)[C@H](CC(C)C)NC(C)=O)C(=O)N[C@@H](CC(C)C)C(=O)N[C@@H](CCCNC(=N)N)C(N)=O [Ac-Leu-Trp-Arg-Ile-Leu-Arg-NH2] (Ac-LWRILR-NH2) | > 200 µM
CC[C@@H](C)[C@@H](NC(=O)[C@@H](CCCNC(=N)N)NC(=O)[C@@H](Cc1c[nH]c2ccccc12)NC(=O)[C@@H](CC(C)C)NC(C)=O)C(=O)N[C@H](CC(C)C)C(=O)N[C@H](CCCNC(=N)N)C(N)=O (Ac-[dL][dW][dR][dI][dL][dR]-NH2) | > 200 µM

Consider the record given below.
Sample CC[C@H](C)[C@H](NC(=O)[C@H](CCCNC(=N)N)NC(=O)[C@H](Cc1c[nH]c2ccccc12)NC(=O)[C@H](CC(C)C)NC(C)=O)C(=O)N[C@@H](CC(C)C)C(=O)N[C@@H](Cc1c[nH]c2ccccc12)C(N)=O [Ac-Leu-Trp-Arg-Ile-Leu-Trp-NH2] (Ac-LWRILW-NH2) — what was its IC50?
> 200 µM

###

Target: calmodulin (Homo sapiens)
Assay: calcium-dependent phosphodiesterase assay (calmodulin activity)
Type: biochemical
Conditions: Table I; assayed at 75, 50 and 12.5 μM, average of repeated assays; read-out: Average IC50
Square brackets hold non-standard residues; d marks the D form. Peptide text beside a SMILES is read from it.
measured_parameter: pIC50
Numbers only, as −log10 of the molar value.

Example compounds with recorded pIC50:
CC(=O)N[C@H](CC(C)C)C(=O)N[C@H](Cc1c[nH]c2ccccc12)C(=O)N[C@H](CCCNC(=N)N)C(=O)N[C@H](Cc1c[nH]cn1)C(=O)N[C@H](CC(C)C)C(=O)N[C@H](CCCNC(=N)N)C(N)=O (Ac-[dL][dW][dR][dH][dL][dR]-NH2) | 4.80
CC[C@@H](C)[C@@H](NC(=O)[C@@H](Cc1c[nH]c2ccccc12)NC(=O)[C@@H](CC(C)C)NC(C)=O)C(=O)N[C@@H](C(=O)N[C@H](CC(C)C)C(=O)N[C@H](CCCNC(=N)N)C(N)=O)[C@H](C)CC (Ac-[dL][dW][dI][dI][dL][dR]-NH2) | 5.14
CC(=O)N[C@H](CC(C)C)C(=O)N[C@H](CCC(N)=O)C(=O)N[C@H](CCCNC(=N)N)C(=O)N[C@H](Cc1c[nH]cn1)C(=O)N[C@H](CC(C)C)C(=O)N[C@H](Cc1c[nH]c2ccccc12)C(N)=O (Ac-[dL][dQ][dR][dH][dL][dW]-NH2) | 4.70

Consider the record given below.
Sample NCCCCNS(=O)(=O)c1ccc2c(Cl)cccc2c1 [Peptide W13, reference compound] — what was its pIC50?
4.03

###

For each record, write down the corresponding pIC50.
Target: calmodulin (Homo sapiens, UniProt P0DP23)
Experiment: calcium-dependent phosphodiesterase assay (calmodulin activity)
Type: biochemical
Conditions: Table I; assayed at 75, 50 and 12.5 μM, average of repeated assays; read-out: Average IC50
Square brackets hold non-standard residues; d marks the D form. Peptide text beside a SMILES is read from it.
Give bare numbers, as −log10 of the molar value.

CC(=O)N[C@H](CC(C)C)C(=O)N[C@H](CCC(N)=O)C(=O)N[C@H](CCCNC(=N)N)C(=O)N[C@H](Cc1c[nH]cn1)C(=O)N[C@H](Cc1c[nH]cn1)C(=O)N[C@H](Cc1c[nH]c2ccccc12)C(N)=O (Ac-[dL][dQ][dR][dH][dH][dW]-NH2) | 4.60
CC[C@@H](C)[C@@H](NC(=O)[C@@H](CCCNC(=N)N)NC(=O)[C@@H](Cc1c[nH]c2ccccc12)NC(=O)[C@@H](CC(C)C)NC(C)=O)C(=O)N[C@H](Cc1c[nH]cn1)C(=O)N[C@H](Cc1c[nH]c2ccccc12)C(N)=O (Ac-[dL][dW][dR][dI][dH][dW]-NH2) | 6.02
CC[C@@H](C)[C@@H](NC(=O)[C@@H](CCCNC(=N)N)NC(=O)[C@@H](CCC(N)=O)NC(=O)[C@@H](CC(C)C)NC(C)=O)C(=O)N[C@H](CC(C)C)C(=O)N[C@H](CCCNC(=N)N)C(N)=O (Ac-[dL][dQ][dR][dI][dL][dR]-NH2) | 4.46
CC[C@@H](C)[C@@H](NC(=O)[C@@H](CCC(N)=O)NC(=O)[C@@H](CC(C)C)NC(C)=O)C(=O)N[C@@H](C(=O)N[C@H](Cc1c[nH]cn1)C(=O)N[C@H](Cc1c[nH]c2ccccc12)C(N)=O)[C@H](C)CC (Ac-[dL][dQ][dI][dI][dH][dW]-NH2) | 4.77
CC(=O)N[C@H](CC(C)C)C(=O)N[C@H](Cc1c[nH]c2ccccc12)C(=O)N[C@H](CCCNC(=N)N)C(=O)N[C@H](Cc1c[nH]cn1)C(=O)N[C@H](CC(C)C)C(=O)N[C@H](Cc1c[nH]c2ccccc12)C(N)=O (Ac-[dL][dW][dR][dH][dL][dW]-NH2) | 5.23

Could you tell me pIC50 for each of these compounds? They are listed below.
1. CC[C@@H](C)[C@@H](NC(=O)[C@@H](CCC(N)=O)NC(=O)[C@@H](CC(C)C)NC(C)=O)C(=O)N[C@H](Cc1c[nH]cn1)C(=O)N[C@H](CC(C)C)C(=O)N[C@H](Cc1c[nH]c2ccccc12)C(N)=O (Ac-[dL][dQ][dI][dH][dL][dW]-NH2)
2. CC(=O)N[C@H](CC(C)C)C(=O)N[C@H](CCC(N)=O)C(=O)N[C@H](CCCNC(=N)N)C(=O)N[C@H](Cc1c[nH]cn1)C(=O)N[C@H](Cc1c[nH]cn1)C(=O)N[C@H](CCCNC(=N)N)C(N)=O (Ac-[dL][dQ][dR][dH][dH][dR]-NH2)
3. CC[C@@H](C)[C@@H](NC(=O)[C@@H](CCCNC(=N)N)NC(=O)[C@@H](CCC(N)=O)NC(=O)[C@@H](CC(C)C)NC(C)=O)C(=O)N[C@H](CC(C)C)C(=O)N[C@H](Cc1c[nH]c2ccccc12)C(N)=O (Ac-[dL][dQ][dR][dI][dL][dW]-NH2)
4. CC[C@@H](C)[C@@H](NC(=O)[C@@H](CCC(N)=O)NC(=O)[C@@H](CC(C)C)NC(C)=O)C(=O)N[C@@H](C(=O)N[C@H](CC(C)C)C(=O)N[C@H](Cc1c[nH]c2ccccc12)C(N)=O)[C@H](C)CC (Ac-[dL][dQ][dI][dI][dL][dW]-NH2)
5. CC[C@@H](C)[C@@H](NC(=O)[C@@H](Cc1c[nH]c2ccccc12)NC(=O)[C@@H](CC(C)C)NC(C)=O)C(=O)N[C@H](Cc1c[nH]cn1)C(=O)N[C@H](Cc1c[nH]cn1)C(=O)N[C@H](CCCNC(=N)N)C(N)=O (Ac-[dL][dW][dI][dH][dH][dR]-NH2)

4.52
4.70
4.62
4.57
4.70
